Data origin: ChEMBL document CHEMBL1201862

Test system: OVCAR-5
EXPERIMENT: NCI tumour cell line growth inhibition, 48 h
The source made the active and inactive calls. Rule as the data show it: active = GI50 up to about 1.1 µM and inactive = higher.
READOUT_NAME: GI50

Would you please look over these solved cases?
MOLECULE | TESTED_ON | GI50
Cc1ccc2nc3cc(C)c(=O)cc-3sc2c1 | OVCAR-5 | > 100 µM (inactive)
O=C1[C@@H]2C3SC(c4ccccc43)[C@@H]2C(=O)N1c1ccccc1 | OVCAR-5 | > 100 µM (inactive)
Nc1nc(Cl)cc(NCC2(CO)CC(CCc3ccccc3)C2)n1 (stereo not given) | OVCAR-5 | > 100 µM (inactive)
Cc1c(O)c(OC2OC(CO)C(O)C(O)C2O)cc2c1C=C[C@@H]1[C@@]2(C)C(=O)C[C@]2(C)[C@@H]([C@@](C)(O)C(=O)CCC(C)(C)O)[C@H](O)C[C@@]12C (stereo not given in full) | OVCAR-5 | 25.6 µM (inactive)
CCC12CCCN(Cc3ccccc3)C1c1c(n(C)c3ccccc13)C(C(=O)OC)C2 (stereo not given) | OVCAR-5 | 78.2 µM (inactive)
CCN1CCCn2c(=O)[nH]c3cc(Br)cc1c32 | OVCAR-5 | > 100 µM (inactive)
COc1ccc(/C=C2/NC(=S)N=C2Cl)cc1 | OVCAR-5 | 21.5 µM (inactive)
Cc1ccc2ccccc2c1NC1=NCCO1 | OVCAR-5 | > 100 µM (inactive)

get_value(item= S=P(N1CC1)(N1CC1)N1CC1 , readout=GI50) returns 147 µM (inactive)

Looking up N=c1oc2ccc([N+](=O)[O-])cc2cc1C(=O)NCc1ccccc1 , I see its GI50 listed as 32.9 µM (inactive)
